target or system: Bovine milk xanthine oxidase (E.C. 1.2.3.2.), XO concentrate by prior art 1 (Horecker and Heppel 1955), E280/E450 ratio 6.1 (Bos taurus, UniProt P80457)
Construct: Bovine milk XO was purified using three different methods
Sequence (P80457 whole entry): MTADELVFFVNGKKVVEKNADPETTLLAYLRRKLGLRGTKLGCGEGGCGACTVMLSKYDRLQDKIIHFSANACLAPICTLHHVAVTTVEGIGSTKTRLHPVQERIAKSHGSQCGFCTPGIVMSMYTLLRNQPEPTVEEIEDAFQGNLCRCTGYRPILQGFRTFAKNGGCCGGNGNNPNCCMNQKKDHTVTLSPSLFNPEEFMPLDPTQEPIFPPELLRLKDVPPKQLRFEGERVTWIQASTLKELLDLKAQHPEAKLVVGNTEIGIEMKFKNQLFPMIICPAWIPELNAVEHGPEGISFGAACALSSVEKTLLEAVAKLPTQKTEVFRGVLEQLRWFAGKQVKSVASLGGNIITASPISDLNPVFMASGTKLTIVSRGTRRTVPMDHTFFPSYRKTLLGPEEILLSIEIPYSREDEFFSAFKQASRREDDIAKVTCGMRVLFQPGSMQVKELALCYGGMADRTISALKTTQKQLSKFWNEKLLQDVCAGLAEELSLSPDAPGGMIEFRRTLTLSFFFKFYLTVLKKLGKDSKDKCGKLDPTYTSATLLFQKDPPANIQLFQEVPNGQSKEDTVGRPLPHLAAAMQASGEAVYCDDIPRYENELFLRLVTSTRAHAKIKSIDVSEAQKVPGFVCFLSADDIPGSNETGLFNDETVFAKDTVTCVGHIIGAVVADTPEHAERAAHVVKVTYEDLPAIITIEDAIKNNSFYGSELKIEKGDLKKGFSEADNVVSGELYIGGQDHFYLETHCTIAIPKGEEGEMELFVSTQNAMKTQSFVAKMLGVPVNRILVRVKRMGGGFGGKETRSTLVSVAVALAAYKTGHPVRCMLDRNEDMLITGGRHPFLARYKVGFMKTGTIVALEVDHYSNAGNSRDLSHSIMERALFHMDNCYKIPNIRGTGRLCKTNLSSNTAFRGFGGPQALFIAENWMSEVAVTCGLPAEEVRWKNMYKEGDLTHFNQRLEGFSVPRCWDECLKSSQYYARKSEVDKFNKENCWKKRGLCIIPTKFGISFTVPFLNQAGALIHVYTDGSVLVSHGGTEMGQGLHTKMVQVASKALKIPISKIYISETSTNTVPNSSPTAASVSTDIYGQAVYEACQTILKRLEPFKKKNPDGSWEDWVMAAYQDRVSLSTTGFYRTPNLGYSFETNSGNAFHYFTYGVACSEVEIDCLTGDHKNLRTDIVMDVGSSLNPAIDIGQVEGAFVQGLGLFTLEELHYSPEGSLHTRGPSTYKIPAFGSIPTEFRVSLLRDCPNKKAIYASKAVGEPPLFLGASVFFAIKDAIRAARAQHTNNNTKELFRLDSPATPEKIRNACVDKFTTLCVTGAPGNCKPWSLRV
assay comment: Kinetic parameters (Km, Vmax, KI) of XO concentrate prepared by prior art method of Horecker and Heppel
pKi: −log10 of the molar value.
measured attribute: pKi

• Nc1nc2ncc(CNc3ccc(C(=O)N[C@@H](CCC(=O)O)C(=O)O)cc3)nc2c(=O)[nH]1 = 5.75

---

target or system: Bovine milk xanthine oxidase (E.C. 1.2.3.2.), XO concentrate of this invention, E280/E450 ratio 2.0 to 4.1 (Bos taurus, UniProt P80457)
Construct: Bovine milk XO was purified using three different methods
Sequence (P80457 whole entry): as above
assay comment: Kinetic parameters (Km, Vmax, KI) of XO concentrate of this invention
recorded conditions: read-out: KI with folic acid
measured attribute: Ki

- Nc1nc2ncc(CNc3ccc(C(=O)N[C@@H](CCC(=O)O)C(=O)O)cc3)nc2c(=O)[nH]1: 1.15 µM
